System Name: UniProtKB P20815
Sequence (P20815 whole entry): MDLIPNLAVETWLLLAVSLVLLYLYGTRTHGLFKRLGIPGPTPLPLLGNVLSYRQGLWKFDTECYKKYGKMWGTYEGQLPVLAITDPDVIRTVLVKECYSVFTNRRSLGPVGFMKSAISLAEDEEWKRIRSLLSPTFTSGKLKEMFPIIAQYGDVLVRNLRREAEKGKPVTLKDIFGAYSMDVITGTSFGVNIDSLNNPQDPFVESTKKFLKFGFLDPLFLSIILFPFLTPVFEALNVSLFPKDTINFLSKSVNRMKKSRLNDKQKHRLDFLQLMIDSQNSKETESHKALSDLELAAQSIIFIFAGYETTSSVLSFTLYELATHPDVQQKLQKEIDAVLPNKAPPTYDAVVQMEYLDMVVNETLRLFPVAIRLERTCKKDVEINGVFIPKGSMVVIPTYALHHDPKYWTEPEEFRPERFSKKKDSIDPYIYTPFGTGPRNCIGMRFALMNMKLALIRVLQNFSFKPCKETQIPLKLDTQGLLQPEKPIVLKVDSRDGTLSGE
Test Description: Inhibition of human recombinant CYP3A5 assessed as reduction of enzyme-CO complex formation at 50 uM preincubated for 3 to 5 mins with NADPH B followed by NADPH A addition measured after 30 mins by CO difference spectroscopy relative to control
Assay type: ADME
Reported Metric: inhibition at 0.5 h, 50 µM (%)
Report only the number, with the unit % understood.

Give the reported value of inhibition at 0.5 h, 50 µM for this record: "CS(=O)(=O)CCNCc1ccc(-c2ccc3ncnc(Nc4ccc(OCc5cccc(F)c5)c(Cl)c4)c3c2)o1" 22

Reference for the values: ChEMBL document CHEMBL3526016
